# Tested on: Plasmodium berghei
# EXPERIMENT SUMMARY: Screen against P. berghei liver stage (PbLuc), transformed with Luciferase, at 10uM
# Assay type: functional, HepG2
# SETTINGS: tested at 10 uM
In all, about 69,000 compounds went through this assay and about 8,600 (12%) showed an effect of 50% or more. The sample as a whole holds a higher share of strong results than the screen did.
Label yes when INHIBITION is at or above 30%; anything below gets no.

Known results for molecules:
[[record]]
molecule = "CN(C)Cc1ccc(C(=O)N2CCCC(n3cccn3)C2)cc1 (configuration not stated)"
category = "yes"

[[record]]
molecule = "Cc1cnn(C2CCCN(C(=O)c3cccc(Cn4ccnc4)c3)C2)c1 (configuration not stated)"
category = "yes"

[[record]]
molecule = "CC(=O)Nc1ncc(S(=O)(=O)Nc2ccc(F)cc2)s1"
category = "no"

[[record]]
molecule = "O=C(c1ccc(CN2CCCC2)cc1)N1CCCC(n2cccn2)C1 (configuration not stated)"
category = "no"

[[record]]
molecule = "CN1CCCC2(CC1)CCN(C(=O)CCc1ccccc1F)CC2"
category = "yes"

[[record]]
molecule = "CC(C)(C)NC(=O)C1CCCCN1Cc1nccn1CC(F)(F)F (configuration not stated)"
category = "yes"

[[record]]
molecule = "CC(=O)Nc1ncc(S(=O)(=O)Nc2cccc(C)c2)s1"
category = "no"

[[record]]
molecule = "CC(=O)Nc1ncc(S(=O)(=O)N2CCC(C)CC2)s1"
category = "yes"


Test whether the molecule COc1ccc(NS(=O)(=O)c2cnc(NC(C)=O)s2)cc1 records INHIBITION of 30% or higher.
yes

Test whether the molecule CN1C(=O)C2(CCN(C(=O)c3ccccc3)CC2)c2cccc(F)c21 records INHIBITION of 30% or higher.
yes

Test whether the molecule CCCc1cc(N2CCCC2Cn2nc(C)cc2C)n2ncnc2n1 (configuration not stated) records INHIBITION of 30% or higher.
no

Test whether the molecule CC(NCCN1CCC(N(C)C)CC1)c1ccc(Cl)s1 (configuration not stated) records INHIBITION of 30% or higher.
no

Test whether the molecule Cc1nc(N)cc(C2CCN2CCOc2ccccc2)n1 (configuration not stated) records INHIBITION of 30% or higher.
no

Test whether the molecule CCOc1ccccc1Oc1ccc(CN)cn1 records INHIBITION of 30% or higher.
yes
